Hey, just so you know, these numbers are from paper PMC7497679.

# ASSAY_TARGET: XIAP BIR3 domain (Homo sapiens)
# Construct: fluorescent probe 4 and the XIAP BIR3 domain (Sino Biological, Beijing, China) were used for all measurements; purchased Sino Biological, Beijing, China
# Sequence (P98170 252-356 limits assumed): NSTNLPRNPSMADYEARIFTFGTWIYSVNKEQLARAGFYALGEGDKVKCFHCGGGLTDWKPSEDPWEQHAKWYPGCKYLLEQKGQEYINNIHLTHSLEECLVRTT
# ASSAY_METHOD_TEXT: Fluorescence polarization inhibition (competition) assay
# Assay type: binding
# TEST_CONDITIONS: XIAP BIR3 50 nM, fluorescent probe 4 2 nM; read-out: log EC50 (converted)
# Experimental: The fluorescence polarization assay was performed at r.t. in Corning 384-well black, polystyrene flat bottom plates (Corning, NY, USA) on a Synergy H4 Hybrid Reader (BioTek, Bad Friedrichshall, Germany). For fluorescence polarization measurements, (milipolarization units, mP) 484/20 nm excitation and 528/20 nm emission filters were selected. […] The obtained fluorescence polarization assay data were analyzed with Prism 5.0 Software (GraphPad Software, San Diego, ca.). […]
PROPERTY_LABEL: EC50 (µM)
Field: numeric (µM). Do not append units.

Req: Query EC50 on XIAP BIR3 domain (Homo sapiens) for CN[C@@H](C)C(=O)N[C@H](C(=O)N1CCC[C@H]1C(=O)NC(C)P(=O)(Oc1ccc(C(C)C)cc1)Oc1ccc(C(C)C)cc1)C(C)C (stereo partly drawn)
Resp: 22

Req: Moving on to the next compound: CN[C@@H](C)C(=O)N[C@H](C(=O)N1CCC[C@H]1C(=O)NC(CCSC)P(=O)(Oc1ccccc1)Oc1ccccc1)C1CCCCC1 (stereo partly drawn)
Resp: 26.3

Req: And the next one, CN[C@@H](C)C(=O)N[C@H](C(=O)N1CCC[C@H]1C(=O)NC(C(C)C)P(=O)(Oc1ccccc1)Oc1ccccc1)C1CCCCC1 (stereo partly drawn) ?
Resp: 23.9
